inhibition at 60 µM reference
- TESTED ON: SIRT2 (Homo sapiens (Human), UniProt Q8IXJ6)
- Sequence (Q8IXJ6 whole entry): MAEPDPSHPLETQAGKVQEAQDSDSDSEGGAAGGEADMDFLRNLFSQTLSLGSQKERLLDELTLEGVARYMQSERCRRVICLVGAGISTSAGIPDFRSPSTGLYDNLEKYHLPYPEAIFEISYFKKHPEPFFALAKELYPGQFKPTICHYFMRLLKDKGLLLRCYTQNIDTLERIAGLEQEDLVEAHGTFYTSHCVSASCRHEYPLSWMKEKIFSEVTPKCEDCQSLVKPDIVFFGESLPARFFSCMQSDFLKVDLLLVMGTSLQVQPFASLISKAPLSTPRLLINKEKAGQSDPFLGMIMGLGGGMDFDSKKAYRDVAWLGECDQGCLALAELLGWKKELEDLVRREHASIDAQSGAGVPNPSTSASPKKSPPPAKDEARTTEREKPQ
- ASSAY NAME: SIRT2 inhibition assay (Fluor de Lys fluorescence-based assay kit)
- Format: biochemical
- MEASUREMENT CONDITIONS: 60 μM compound; human recombinant enzyme; read-out: SirT2 (% inhib at 60 μM)
Structures can show the parent of a compound that is named as a salt.
Quick reminder: number only, in %, skip the unit.

Answered examples (5):
>>> recorded_number("Cc1ccc(C(=O)NC(=S)Nc2ccc(NC(=O)CCCCN(C)C)cc2)cc1Br [Compound 330a, hydrochloride]")
80.2
>>> recorded_number("Cc1cccc(C(=O)NC(=S)Nc2ccc(NC(=O)CCCCN(C)C)cc2)c1")
20.9
>>> recorded_number("CCc1ccc(C(=O)NC(=S)Nc2ccc(NC(=O)CCCCN(C)C)cc2)cc1 [Compound 345d, hydrochloride]")
57.1
>>> recorded_number("CCCCCc1ccc(C(=O)NC(=S)Nc2ccc(NC(=O)CCCCN(C)C)cc2)cc1 [Compound 345a, hydrochloride]")
85.4
>>> recorded_number("CN(C)CCCCC(=O)Nc1ccc(NC(=S)NC(=O)c2ccc(Cl)cc2)cc1 [318a A1, hydrochloride]")
61

Entry under review: CN(C)CCCCC(=O)Nc1ccc(NC(=S)NC(=O)c2cccc(Br)c2)cc1 [Compound A6, hydrochloride] . Reported inhibition at 60 µM? 81

Another molecule to check: COc1cccc(C(=O)NC(=S)Nc2ccc(NC(=O)CCCCN(C)C)cc2)c1 [Compound B2, hydrochloride] 30.5

Another molecule to check: CN(C)CCCCC(=O)Nc1ccc(NC(=S)NC(=O)c2cc(F)c(F)c(F)c2)cc1 [Compound D1, hydrochloride] 46

Another molecule to check: COc1ccc(C(=O)NC(=S)Nc2ccc(NC(=O)CCCCN(C)C)cc2)cc1C(F)(F)F [Compound C6, hydrochloride] 29.5

Another molecule to check: CN(C)CCCCC(=O)Nc1ccc(NC(=S)NC(=O)c2ccc(Cl)c(Cl)c2)cc1 [Compound 311d, hydrochloride] 68

Another molecule to check: CN(C)CCCCC(=O)Nc1ccc(NC(=S)NC(=O)c2ccccc2Cl)cc1 [Compound A2, hydrochloride] 54.3

Another molecule to check: COc1c(Cl)cc(C(=O)NC(=S)Nc2ccc(NC(=O)CCCCN(C)C)cc2)cc1Cl.Cl [Compound D3, hydrochloride] 80.3

Another molecule to check: Cc1ccc(C(=O)NC(=S)Nc2ccc(NC(=O)CCCCN(C)C)cc2)cc1C [Compound C4, hydrochloride] 65.1

Another molecule to check: Cc1ccccc1C(=O)NC(=S)Nc1ccc(NC(=O)CCCCN(C)C)cc1 [Compound A1, hydrochloride] 48.5

Another molecule to check: CCCCc1ccc(C(=O)NC(=S)Nc2ccc(NC(=O)CCCCN(C)C)cc2)cc1 [Compound 345b, hydrochloride] 90

---

- TESTED ON: UniProt Q8IXJ6
- ASSAY NAME: SIRT2 inhibition assay (Fluor de Lys fluorescence-based assay kit)
- Assay type: biochemical
- MEASUREMENT CONDITIONS: 60 μM compound; human recombinant enzyme; read-out: SirT2 (% inhib at 60 μM)
- Description: SIRT1 and SIRT2 Inhibition Assays All compounds were tested for inhibition of SIRT1 and SIRT2 using human recombinant enzymes available in the Fluor de Lys fluorescence-based assay kit (BIOMOL, AK555, AK556). All other required reagents were provided in the kit which was stored at −78° C. […] The plate was then incubated for 45 min at rt and then read using a Spectra Max Gemini fluorimeter with an excitation wavelength of 355 nm and an emission wavelength of 460 nm. […]
Where a name gives a salt, the structure may show the parent alone.
MEASUREMENT TYPE: inhibition at 60 µM (%)
Quick reminder: number only, in %, skip the unit.

>>> recorded_number("CCCc1ccc(C(=O)NC(=S)Nc2ccc(NC(=O)CCCCN(C)C)cc2)cc1 [Compound 345c, hydrochloride]")
89
>>> recorded_number("CN(C)CCCCC(=O)Nc1ccc(NC(=S)NC(=O)c2ccc(C(C)(C)C)c(Br)c2)cc1 [Compound 361a, hydrochloride]")
91.1
>>> recorded_number("COc1cc(C(=O)NC(=S)Nc2ccc(NC(=O)CCCCN(C)C)cc2)cc(OC)c1OC [Compound D2, hydrochloride]")
18

Consider the additional compound presented here.
Entry under review: Cc1ccc(C(=O)NC(=S)Nc2ccc(NC(=O)CCCCN(C)C)cc2)cc1 [318a A2, hydrochloride] . Reported inhibition at 60 µM? 40

---

pIC50 reference
- TESTED ON: SIRT1 (Homo sapiens (Human), UniProt Q96EB6)
- Sequence (Q96EB6 whole entry): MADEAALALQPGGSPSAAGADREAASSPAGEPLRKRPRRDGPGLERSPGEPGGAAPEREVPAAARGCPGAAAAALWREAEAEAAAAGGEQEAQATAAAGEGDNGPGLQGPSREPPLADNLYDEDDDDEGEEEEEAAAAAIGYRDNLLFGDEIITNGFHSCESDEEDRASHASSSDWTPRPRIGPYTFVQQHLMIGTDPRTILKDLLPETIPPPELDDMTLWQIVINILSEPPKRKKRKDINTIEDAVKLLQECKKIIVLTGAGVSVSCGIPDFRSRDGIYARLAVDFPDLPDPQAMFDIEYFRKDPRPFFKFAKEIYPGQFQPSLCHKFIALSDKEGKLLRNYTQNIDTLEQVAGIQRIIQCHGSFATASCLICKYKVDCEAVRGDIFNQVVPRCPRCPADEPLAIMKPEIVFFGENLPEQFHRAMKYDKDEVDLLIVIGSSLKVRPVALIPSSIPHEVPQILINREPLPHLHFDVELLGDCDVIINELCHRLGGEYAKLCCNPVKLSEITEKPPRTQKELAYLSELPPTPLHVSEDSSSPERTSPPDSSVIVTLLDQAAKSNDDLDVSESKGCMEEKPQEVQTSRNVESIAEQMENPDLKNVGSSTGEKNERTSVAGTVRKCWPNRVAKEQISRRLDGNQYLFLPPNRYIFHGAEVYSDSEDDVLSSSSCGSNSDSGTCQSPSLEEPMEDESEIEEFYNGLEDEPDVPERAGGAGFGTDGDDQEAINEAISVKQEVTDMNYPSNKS
- ASSAY NAME: SIRT1 inhibition assay (Fluor de Lys fluorescence-based assay kit)
- MEASUREMENT CONDITIONS: human recombinant enzyme
Where a name gives a salt, the structure may show the parent alone.
Scale note: pIC50 = -log10(concentration in M).

Answered examples (2):
>>> recorded_number("CN(C)CCCCC(=O)Nc1ccc(NC(=S)NC(=O)c2ccc(Br)cc2)cc1 [Compound B5, hydrochloride]")
4.21
>>> recorded_number("COc1c(Cl)cc(C(=O)NC(=S)Nc2ccc(NC(=O)CCCCN(C)C)cc2)cc1Cl.Cl [Compound D3, hydrochloride]")
4.20

Entry under review: Cc1ccc(C(=O)NC(=S)Nc2ccc(NC(=O)CCCCN(C)C)cc2)cc1Br [Compound 330a, hydrochloride] . Reported pIC50? 4.36

---

IC50 reference
- TESTED ON: SIRT2 (Homo sapiens (Human), UniProt Q8IXJ6)
- ASSAY NAME: SIRT2 inhibition assay (Fluor de Lys fluorescence-based assay kit)
- MEASUREMENT CONDITIONS: human recombinant enzyme
Counter-ions that a name gives are not always drawn.
Quick reminder: number only, in µM, skip the unit.

Answered examples (2):
>>> recorded_number("CN(C)CCCCC(=O)Nc1ccc(NC(=S)NC(=O)c2cccc(Br)c2)cc1 [Compound A6, hydrochloride]")
21.2
>>> recorded_number("CC(C)c1ccc(C(=O)NC(=S)Nc2ccc(NC(=O)CCCCN(C)C)cc2)cc1 [Compound 331a, hydrochloride]")
32.5

Consider the additional molecule presented here.
Entry under review: Cc1ccc(C(=O)NC(=S)Nc2ccc(NC(=O)CCCCN(C)C)cc2)cc1Br [Compound 330a, hydrochloride] . Reported IC50? 31.9

---

pIC50 reference
- TESTED ON: SIRT1 (Homo sapiens (Human), UniProt Q96EB6)
- ASSAY NAME: SIRT1 inhibition assay (Fluor de Lys fluorescence-based assay kit)
- MEASUREMENT CONDITIONS: human recombinant enzyme
Where a name gives a salt, the structure may show the parent alone.
Scale note: pIC50 = -log10(concentration in M).

>>> recorded_number("CN(C)CCCCC(=O)Nc1ccc(NC(=S)NC(=O)c2ccc(Cl)c(Cl)c2)cc1 [Compound 311d, hydrochloride]")
4.15
>>> recorded_number("CN(C)CCCCC(=O)Nc1ccc(NC(=S)NC(=O)c2ccc(C(C)(C)C)c(Br)c2)cc1 [Compound 361a, hydrochloride]")
4.74
>>> recorded_number("COc1ccc(C(=O)NC(=S)Nc2ccc(NC(=O)CCCCN(C)C)cc2)cc1C(F)(F)F [Compound C6, hydrochloride]")
4.29
>>> recorded_number("CCCCOc1c(Cl)cc(C(=O)NC(=S)Nc2ccc(NC(=O)CCCCN(C)C)cc2)cc1Cl [Compound 392a, hydrochloride]")
4.65
>>> recorded_number("COc1c(Br)cc(C(=O)NC(=S)Nc2ccc(NC(=O)CCCCN(C)C)cc2)cc1Br [Compound 383a, hydrochloride]")
4.33
>>> recorded_number("CC(C)c1ccc(C(=O)NC(=S)Nc2ccc(NC(=O)CCCCN(C)C)cc2)cc1 [Compound 331a, hydrochloride]")
4.19
>>> recorded_number("CN(C)CCCCC(=O)Nc1ccc(NC(=S)NC(=O)c2cccc(Br)c2)cc1 [Compound A6, hydrochloride]")
4.40
>>> recorded_number("CCOc1c(Cl)cc(C(=O)NC(=S)Nc2ccc(NC(=O)CCCCN(C)C)cc2)cc1Cl [Compound 391a, hydrochloride]")
4.53

Entry under review: Cc1cc(C(=O)NC(=S)Nc2ccc(NC(=O)CCCCN(C)C)cc2)ccc1Br [Compound C5, hydrochloride] . Reported pIC50? 4.16
